Species on record: Mus musculus
ASSAY_INFO: Compound was tested for the oral activity in CF-1 mice infected with C. Albicans in eagles essential medium at pH 7.0 duration of 48 h
Assay type: functional
Set-up: unit not given here
The entries below come with measured MIC values attached.
QUANTITY_MEASURED: MIC

* CCC(C)n1ncn(-c2ccc(N3CCN(c4ccc(OC[C@H]5CO[C@](Cn6cncn6)(c6ccc(F)cc6F)O5)cc4)CC3)cc2)c1=O (single isomer, unassigned) [SAPERCONAZOLE] | 0.0039
* CC[C@@H](C)n1ncn(-c2ccc(N3CCN(c4ccc(OC[C@@H]5COC(Cn6cncn6)(c6ccc(F)cc6F)C5)cc4)CC3)cc2)c1=O (single isomer, unassigned) | 0.0313
* CC[C@H](C)n1ncn(-c2ccc(N3CCN(c4ccc(OC[C@@H]5COC(Cn6cncn6)(c6ccc(F)cc6F)C5)cc4)CC3)cc2)c1=O (single isomer, unassigned) [SCH-49999] | 0.0625
* CCC(C)n1ncn(-c2ccc(N3CCN(c4ccc(OC[C@@H]5CO[C@@](Cn6cncn6)(c6ccc(Cl)cc6Cl)O5)cc4)CC3)cc2)c1=O (stereo not given in full) [ITRACONAZOLE] | 0.0078
* CCC(C)n1ncn(-c2ccc(N3CCN(c4ccc(OC[C@@H]5COC(Cn6cncn6)(c6ccc(F)cc6F)C5)cc4)CC3)cc2)c1=O (single isomer, unassigned) | 0.0039
